Assay: Tmax in Lewis rat at 5 mg/kg, po
Format: ADME, organism-based
Parameters: dose 5 mg/kg, route oral
Details: in vivo
experimental-endpoint: Tmax (h)
A number alone suffices; assume h.

[in] Given the compound O=C(NCCC1CC1)c1ccc(N2CCN(C(=O)c3ccccc3C(F)(F)F)CC2)nn1 , write its reported Tmax.
[out] 1

* * *

Test: Cmax in Lewis rat at 2 mg/kg, po
Format: ADME, organism-based
Design: dose 2 mg/kg, route oral
Conditions: in vivo
experimental-endpoint: Cmax
Output should be the measured figure followed by the unit it is expressed in.

[in] Supply recorded Cmax for O=C(Nc1nc2ccccc2[nH]1)c1ccc(N2CCN(C(=O)c3ccccc3C(F)(F)F)CC2)nn1 here.
[out] 70 nM

* * *

Assay: Metabolic stability in rat liver microsome after 30 mins by LC/MS/MS analysis
Assay type: ADME
Conditions: liver microsomes, read-out: Stability
experimental-endpoint: remaining at 0.5 h (%)
Quick reminder: number only, in %, skip the unit.

Example cases with answers are listed next.
>>> df
                                test_smiles  meas_value
0  O=C(NCCCCC1CC1)c1ccc(N2CCN(C(=O)c3ccccc3C(F)(F)F)CC2)nn1          42
1  CCCCCCNC(=O)c1ccc(N2CCN(C(=O)c3ccccc3C(F)(F)F)CC2)nn1          14
2  O=C(NCCC1CC1)c1ccc(N2CCN(C(=O)c3ccc(F)cc3C(F)(F)F)CC2)nn1          69
3  O=C(Nc1nc2ccccc2[nH]1)c1ccc(N2CCN(C(=O)c3ccccc3C(F)(F)F)CC2)nn1          92
4  O=C(NCc1ccc(C(F)(F)F)o1)c1ccc(N2CCN(C(=O)c3ccccc3C(F)(F)F)CC2)nn1          78
5  O=C(NCCC1CC1)c1ccc(N2CCN(C(=O)c3cc(F)ccc3Cl)CC2)nn1          66

[in] Hello, please tell me recorded remaining at 0.5 h for this one: O=C(Nc1ccccc1)c1ccc(N2CCN(C(=O)c3ccccc3C(F)(F)F)CC2)nn1
[out] 9

[in] Dear colleague, please send me the reported remaining at 0.5 h for O=C(NCCC1CC1)c1ccc(N2CCN(C(=O)c3cc(Cl)ccc3C(F)(F)F)CC2)nn1 when you can.
[out] 69

[in] Identify measured remaining at 0.5 h associated with CCCCCNC(=O)c1ccc(N2CCN(C(=O)c3ccccc3C(F)(F)F)CC2)nn1
[out] 49

[in] Look up remaining at 0.5 h of O=C(NCCC1CC1)c1ccc(N2CCN(C(=O)c3cc(F)ccc3C(F)(F)F)CC2)nn1 and report it.
[out] 74

[in] Respond only with remaining at 0.5 h recorded for O=C(NCCCC1CC1)c1ccc(N2CCN(C(=O)c3ccccc3C(F)(F)F)CC2)nn1
[out] 63

* * *

Assay: Oral bioavailability in Lewis rat at 2 mg/kg
Assay type: ADME, organism-based
Settings: in vivo
experimental-endpoint: bioavailability (%)
Give the value in % but do not write % after it.

[in] Could you please provide reported bioavailability for O=C(Nc1nc2ccccc2[nH]1)c1ccc(N2CCN(C(=O)c3ccccc3C(F)(F)F)CC2)nn1 ? Thanks!
[out] 19

* * *

Target: Acyl-CoA desaturase 1 (Mus musculus)
Sequence (P13516 whole entry): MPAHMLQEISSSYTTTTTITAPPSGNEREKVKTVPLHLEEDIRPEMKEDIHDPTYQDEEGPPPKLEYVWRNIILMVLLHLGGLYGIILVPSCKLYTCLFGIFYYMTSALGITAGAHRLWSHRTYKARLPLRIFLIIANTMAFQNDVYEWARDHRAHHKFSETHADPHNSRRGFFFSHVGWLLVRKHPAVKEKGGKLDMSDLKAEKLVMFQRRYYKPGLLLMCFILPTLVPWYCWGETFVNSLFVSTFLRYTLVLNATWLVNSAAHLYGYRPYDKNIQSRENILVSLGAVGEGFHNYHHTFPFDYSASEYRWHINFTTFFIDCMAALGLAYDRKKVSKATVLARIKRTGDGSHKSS
Assay: Inhibition of SCD1 in ICR mouse liver microsome using [9,10 3H]- stearoyl-Coenzyme A substrate assessed as decreased production of tritiated water after 20 min by scintillation counting analysis
pIC50: −log10 of the molar value.
Decision: pIC50 compared against 7; not below it gives Met, below it gives Not met.

>>> df
                                test_smiles  class_label
0  O=C(NCc1cocn1)c1ccc(N2CCN(C(=O)c3ccccc3C(F)(F)F)CC2)nn1      Not met
1  O=C(NCCC1CC1)c1ccc(N2CCN(C(=O)c3ccccc3C(=O)O)CC2)nn1      Not met
2  O=C(NCCCC1CC1)c1ccc(N2CCN(C(=O)c3ccccc3C(F)(F)F)CC2)nn1          Met
3  O=C(NCCC1CC1)c1ccc(N2CCN(C(=O)c3ccccc3C(F)(F)F)CC2)nn1          Met
4  O=C(Nc1ccc(Cl)cc1)c1ccc(N2CCN(C(=O)c3ccccc3C(F)(F)F)CC2)nn1          Met

[in] Test whether the compound Cc1cnc(CNC(=O)c2ccc(N3CCN(C(=O)c4ccccc4C(F)(F)F)CC3)nn2)cn1 records pIC50 of 7 or higher.
[out] Met

[in] Check this compound for pIC50 at or above 7: O=C(NCCC1CC1)c1ccc(N2CCN(C(=O)c3cnc(Cl)nc3C(F)(F)F)CC2)nn1
[out] Not met

[in] # bool: pIC50 of O=C(NCc1ccccc1)c1ccc(N2CCN(C(=O)c3ccccc3C(F)(F)F)CC2)nn1 >= 7
[out] Met

[in] Threshold query (pIC50 >= 7) on O=C(NCc1nccs1)c1ccc(N2CCN(C(=O)c3ccccc3C(F)(F)F)CC2)nn1
[out] Met

[in] Does the reported pIC50 for O=C(NCCC1CC1)c1ccc(N2CCN(C(=O)c3cccc(F)c3C(F)(F)F)CC2)nn1 fall at or above the 7 mark?
[out] Met

[in] Would you say O=C(NCc1ccccn1)c1ccc(N2CCN(C(=O)c3ccccc3C(F)(F)F)CC2)nn1 shows pIC50 at minimum 7?
[out] Not met

[in] Tell me whether pIC50 is at least 7 here: CC(C)CCNC(=O)c1cnc(N2CCN(C(=O)c3ccccc3C(F)(F)F)CC2)cn1
[out] Not met

[in] # bool: pIC50 of CC(C)CCNC(=O)c1ccc(N2CCN(C(=O)c3ccccc3C(F)(F)F)CC2)nn1 >= 7
[out] Met

[in] Test whether the compound O=C(NCCC1CC1)c1ccc(N2CCN(C(=O)c3cc(F)ccc3C(F)(F)F)CC2)nn1 records pIC50 of 7 or higher.
[out] Met

[in] I'd appreciate it if you could say whether CC(C)(O)CCNC(=O)c1ccc(N2CCN(C(=O)c3ccccc3C(F)(F)F)CC2)nn1 has pIC50 at least equal to 7.
[out] Not met

* * *

Target: Stearoyl-CoA desaturase (Homo sapiens)
Sequence (O00767 whole entry): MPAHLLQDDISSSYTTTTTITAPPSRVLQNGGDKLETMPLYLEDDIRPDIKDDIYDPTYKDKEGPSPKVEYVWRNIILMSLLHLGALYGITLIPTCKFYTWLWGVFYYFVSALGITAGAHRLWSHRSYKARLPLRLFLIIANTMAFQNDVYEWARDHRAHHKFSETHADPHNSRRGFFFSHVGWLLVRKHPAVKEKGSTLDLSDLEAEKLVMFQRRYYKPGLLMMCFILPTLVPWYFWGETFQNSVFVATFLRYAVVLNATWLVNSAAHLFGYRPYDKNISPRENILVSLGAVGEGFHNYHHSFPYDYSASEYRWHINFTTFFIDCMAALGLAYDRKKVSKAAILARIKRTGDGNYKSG
Test: Inhibition of SCD1 in human HepG2 cells using [14C]-stearate substrate assessed as decreased production of [14C]-oleic acid after 24 hrs
Type: cell-based
experimental-endpoint: IC50 (nM)
Numbers only here, please. The scale is nM.

                                test_smiles  meas_value
0  CC(C(=O)N1CCN(c2ccc(C(=O)NCCC3CC3)nn2)CC1)(C(F)(F)F)C(F)(F)F         119
1  O=C(NCCC1CC1)c1ccc(N2CCN(C(=O)c3ccoc3C(F)(F)F)CC2)nn1         290
2  O=C(NCCC1CC1)c1ccc(N2CCN(C(=O)c3cc(Cl)ccc3Cl)CC2)nn1         101
3  O=C(NCCC1CC1)c1ccc(N2CCN(C(=O)c3cc(F)ccc3Cl)CC2)nn1         192
4  O=C(NCCC1CC1)c1ccc(N2CCN(C(=O)c3cnc(Cl)nc3C(F)(F)F)CC2)nn1        5870

[in] Supply reported IC50 belonging to this molecule: Cc1cc(C(=O)N2CCN(c3ccc(C(=O)NCCC4CC4)nn3)CC2)c(C(F)(F)F)o1
[out] 62

* * *

Listing of entries alongside the reported inhibition in vivo at 15 mg/kg.
System: Rattus norvegicus
Experiment: In vivo inhibition of SCD1 in Lewis rat liver microsome at 15 mg/kg, ip administered qd for 2 days
Assay type: functional
Conditions: 48 h, route intraperitoneal

Please review the entries below; each comes with its answer.
>>> print(df.to_string())
                                test_smiles  meas_value
0  O=C(NCCCC1CC1)c1ccc(N2CCN(C(=O)c3ccccc3C(F)(F)F)CC2)nn1       > 60%
1  Cc1cc(C(=O)N2CCN(c3ccc(C(=O)NCCC4CC4)nn3)CC2)c(C(F)(F)F)o1       < 30%
2  O=C(NCCC1CC1)c1ccc(N2CCN(C(=O)c3cc(F)ccc3C(F)(F)F)CC2)nn1       > 60%

[in] For O=C(NC[C@@H](O)c1ccccc1)c1ccc(N2CCN(C(=O)c3ccccc3C(F)(F)F)CC2)nn1 , write its inhibition in vivo at 15 mg/kg.
[out] > 60%

[in] Return the recorded inhibition in vivo at 15 mg/kg value; entry: O=C(CNC(=O)c1ccc(N2CCN(C(=O)c3ccccc3C(F)(F)F)CC2)nn1)c1ccccc1
[out] > 60%

[in] Return the recorded inhibition in vivo at 15 mg/kg value; entry: CC(C)CCNC(=O)c1ccc(N2CCN(C(=O)c3ccccc3C(F)(F)F)CC2)nn1
[out] 40%

[in] State, in one line, measured inhibition in vivo at 15 mg/kg of Cc1ccc(CNC(=O)c2ccc(N3CCN(C(=O)c4ccccc4C(F)(F)F)CC3)nn2)o1
[out] < 30%

[in] In one line, give reported inhibition in vivo at 15 mg/kg of the entry O=C(NCCC1CC1)c1ccc(N2CCN(C(=O)c3ccccc3C(F)(F)F)CC2)nn1 .
[out] > 60%

[in] Please list inhibition in vivo at 15 mg/kg recorded for the compound O=C(NCCC1CC1)c1ccc(N2CCN(C(=O)c3cc(Cl)ccc3C(F)(F)F)CC2)nn1
[out] > 60%

[in] Given the compound O=C(Nc1nc2ccccc2[nH]1)c1ccc(N2CCN(C(=O)c3ccccc3C(F)(F)F)CC2)nn1 , write its reported inhibition in vivo at 15 mg/kg.
[out] < 30%

[in] Tell me inhibition in vivo at 15 mg/kg reported for O=C(NCCC1CC1)c1ccc(N2CCN(C(=O)c3ccc(F)cc3C(F)(F)F)CC2)nn1
[out] > 60%
